Target: panel of 255 wild-type kinases (Homo sapiens)
Sequence (P29322 28-1005): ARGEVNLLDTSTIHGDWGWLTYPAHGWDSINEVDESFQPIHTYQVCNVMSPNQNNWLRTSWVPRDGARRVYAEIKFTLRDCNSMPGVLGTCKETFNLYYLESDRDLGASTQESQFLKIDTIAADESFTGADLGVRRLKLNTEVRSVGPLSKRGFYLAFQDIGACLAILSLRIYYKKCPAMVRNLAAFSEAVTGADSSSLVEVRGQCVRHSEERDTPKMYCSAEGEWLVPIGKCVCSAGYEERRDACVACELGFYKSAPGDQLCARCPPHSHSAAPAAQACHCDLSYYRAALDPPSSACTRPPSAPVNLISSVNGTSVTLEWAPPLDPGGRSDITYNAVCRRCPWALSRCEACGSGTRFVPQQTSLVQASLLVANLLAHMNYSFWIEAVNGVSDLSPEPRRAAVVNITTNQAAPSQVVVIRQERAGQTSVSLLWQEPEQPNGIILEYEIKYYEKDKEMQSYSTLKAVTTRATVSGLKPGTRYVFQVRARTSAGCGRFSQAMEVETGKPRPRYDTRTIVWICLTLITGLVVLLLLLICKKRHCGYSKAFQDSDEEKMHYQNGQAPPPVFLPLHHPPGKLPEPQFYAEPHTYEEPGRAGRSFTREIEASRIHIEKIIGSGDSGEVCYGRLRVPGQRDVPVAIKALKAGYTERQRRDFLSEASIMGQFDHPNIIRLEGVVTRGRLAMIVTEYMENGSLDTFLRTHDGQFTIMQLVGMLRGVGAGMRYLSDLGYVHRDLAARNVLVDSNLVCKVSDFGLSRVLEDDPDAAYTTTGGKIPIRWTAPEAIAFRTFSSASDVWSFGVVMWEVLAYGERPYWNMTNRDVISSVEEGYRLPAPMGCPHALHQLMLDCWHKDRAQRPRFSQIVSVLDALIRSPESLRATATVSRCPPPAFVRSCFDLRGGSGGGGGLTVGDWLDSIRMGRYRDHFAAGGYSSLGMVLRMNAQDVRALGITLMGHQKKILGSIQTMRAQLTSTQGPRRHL
Assay: Kinase panel profiling at 1 µmol/L (MSA or IMAP), percentage inhibition
Type: biochemical
Details: kinase EPHA8; 1 µmol/L single concentration; read-out: %-inhibition at 1 µmol/L, EPHA8
assay_metric: inhibition at 1 µM (%)

QUERY: For the compound COc1ccc(CN2C3CC2CN(c2ccc(-c4cc(OCC(C)(C)O)cn5ncc(C#N)c45)cn2)C3)cn1 , what inhibition at 1 µM is on record?
RESULT: 45

QUERY: Recorded inhibition at 1 µM of CO[C@]1(C(=O)N[C@@H](C)c2ccc(-n3cc(F)cn3)nc2)CC[C@H](c2nc(C)cc(Nc3cc(C)[nH]n3)n2)CC1 , please.
RESULT: 84

QUERY: Suppose we examine the compound CCc1nc(C(N)=O)c(Nc2ccc(N3CCC(N4CCN(C)CC4)CC3)c(OC)c2)nc1NC1CCOCC1 ; what inhibition at 1 µM value has been reported?
RESULT: 66

QUERY: Given the compound COc1cc2ncnc(Nc3ccc(F)c(Cl)c3)c2cc1NC(=O)/C=C/CN1CCCCC1 , what is its reported inhibition at 1 µM?
RESULT: 59

* * *

molecular target: panel of 255 wild-type kinases (Homo sapiens); assay: Kinase panel profiling at 1 µmol/L (MSA or IMAP), percentage inhibition; type: biochemical; conditions: CaMK2γ kinase assay; 1 µmol/L single concentration; read-out: %-inhibition CaMK2γ
assay_metric: inhibition at 1 µM (%)

QUERY: What value of inhibition at 1 µM has been recorded for this entry: CCN1C(=O)N(c2c(F)c(OC)cc(OC)c2F)Cc2cnc3[nH]c(CN4CCOCC4)cc3c21
RESULT: 5

(1) COc1cc2ncnc(Nc3ccc(F)c(Cl)c3)c2cc1NC(=O)/C=C/CN1CCCCC1
(2) Cn1cnc2c(F)c(Nc3ccc(Br)cc3Cl)c(C(=O)NOCCO)cc21
QUERY: Quick one: lower inhibition at 1 µM, 1 or 2 ? Kindly state the label of the option you pick.
RESULT: 2
(2: -3%, 1: 2.37%)

* * *

test system: 134 cancer cell lines; test: Cell viability assay (ATPlite, 72 hours), IC50 on cancer cell line panel; conditions: Homo sapiens, HT, read-out: IC50 in cell proliferation assay, HT cell line
assay_metric: IC50 (µM)

QUERY: IC50 lookup needed for CCc1nc(C(N)=O)c(Nc2ccc(N3CCC(N4CCN(C)CC4)CC3)c(OC)c2)nc1NC1CCOCC1 , thanks.
RESULT: 3.41

(A) Cc1cc(Nc2ncnc3ccc(NC4=NC(C)(C)CO4)cc23)ccc1Oc1ccn2ncnc2c1
(B) COc1ccc(CN2C3CC2CN(c2ccc(-c4cc(OCC(C)(C)O)cn5ncc(C#N)c45)cn2)C3)cn1
QUERY: Could you check which of A and B has a smaller value for IC50? Answer format: the label of the selected item.
RESULT: B

* * *

target: UniProtKB Q16566; experiment: Kinase panel profiling at 1 µmol/L (MSA or IMAP), percentage inhibition; format: biochemical; details: CaMK4 kinase assay; 1 µmol/L single concentration; read-out: %-inhibition CaMK4
Sequence (Q16566 whole entry): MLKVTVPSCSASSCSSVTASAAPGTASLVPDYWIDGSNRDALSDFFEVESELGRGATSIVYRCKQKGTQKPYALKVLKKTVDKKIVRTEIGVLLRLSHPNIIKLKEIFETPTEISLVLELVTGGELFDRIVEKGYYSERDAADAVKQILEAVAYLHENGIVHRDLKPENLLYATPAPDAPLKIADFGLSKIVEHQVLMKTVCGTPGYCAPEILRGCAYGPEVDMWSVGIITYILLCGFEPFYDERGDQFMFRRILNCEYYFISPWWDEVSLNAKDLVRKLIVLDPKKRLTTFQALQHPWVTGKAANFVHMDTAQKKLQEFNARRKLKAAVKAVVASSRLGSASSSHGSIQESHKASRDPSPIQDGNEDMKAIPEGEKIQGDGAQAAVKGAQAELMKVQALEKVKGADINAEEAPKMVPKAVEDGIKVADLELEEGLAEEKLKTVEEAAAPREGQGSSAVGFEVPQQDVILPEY
assay_metric: inhibition at 1 µM (%)
State the answer as a number, implicitly in %.

QUERY: Sample Cc1cc(Nc2ncnc3ccc(NC4=NC(C)(C)CO4)cc23)ccc1Oc1ccn2ncnc2c1 — what was its inhibition at 1 µM?
RESULT: 0.435

QUERY: Item under review: CCn1c(=O)c(-c2cc(NC(=O)Nc3ccccc3)c(F)cc2Br)cc2cnc(NC)cc21 . Reported inhibition at 1 µM?
RESULT: 1.71

QUERY: Recorded inhibition at 1 µM for CN1CCN(c2ccc(C(=O)Nc3n[nH]c4ccc(Cc5cc(F)cc(F)c5)cc34)c(NC3CCOCC3)c2)CC1 , please?
RESULT: 1.07

QUERY: Any idea what inhibition at 1 µM was measured for CCN1C(=O)N(c2c(F)c(OC)cc(OC)c2F)Cc2cnc3[nH]c(CN4CCOCC4)cc3c21 ?
RESULT: 1.2

* * *

biological target: panel of 255 wild-type kinases (Homo sapiens, UniProt P07948); assay: Kinase panel profiling at 1 µmol/L (MSA or IMAP), percentage inhibition; format: biochemical; conditions: kinase LYNa; 1 µmol/L single concentration; read-out: %-inhibition at 1 µmol/L, LYNa
Sequence (P07948 whole entry): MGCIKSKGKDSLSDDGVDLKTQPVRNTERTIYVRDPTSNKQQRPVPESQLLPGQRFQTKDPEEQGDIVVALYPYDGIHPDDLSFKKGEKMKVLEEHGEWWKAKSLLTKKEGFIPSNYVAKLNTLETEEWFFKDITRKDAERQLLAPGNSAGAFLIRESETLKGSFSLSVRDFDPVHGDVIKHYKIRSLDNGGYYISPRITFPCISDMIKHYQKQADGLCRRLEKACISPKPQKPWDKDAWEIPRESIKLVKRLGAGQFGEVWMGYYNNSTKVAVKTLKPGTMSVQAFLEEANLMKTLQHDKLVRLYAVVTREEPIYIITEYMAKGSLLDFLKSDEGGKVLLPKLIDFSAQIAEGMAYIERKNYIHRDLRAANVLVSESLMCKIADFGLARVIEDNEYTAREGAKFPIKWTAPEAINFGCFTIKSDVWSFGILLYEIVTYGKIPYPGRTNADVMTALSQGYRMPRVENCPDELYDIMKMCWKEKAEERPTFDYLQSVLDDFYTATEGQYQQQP
assay_metric: inhibition at 1 µM (%)

QUERY: Look up inhibition at 1 µM: CN1CCN(c2ccc(C(=O)Nc3n[nH]c4ccc(Cc5cc(F)cc(F)c5)cc34)c(NC3CCOCC3)c2)CC1 [entrectinib]
RESULT: 74

QUERY: Using the record for C[C@H]1Oc2cc(cnc2N)-c2c(nn(C)c2C#N)CN(C)C(=O)c2ccc(F)cc21 [lorlatinib] , report its inhibition at 1 µM.
RESULT: 21

QUERY: Could you share which inhibition at 1 µM value was measured for Cn1cc(-c2cc3c(N4CCN(c5ncc([C@@](C)(N)c6ccc(F)cc6)cn5)CC4)ncnn3c2)cn1 [avapritinib] ?
RESULT: 87

QUERY: Need inhibition at 1 µM of FC(F)(F)c1ccc(CNc2ccc(Cc3c[nH]c4ncc(Cl)cc34)cn2)cn1 [pexidartinib] , thanks.
RESULT: 24

QUERY: Using the record for COC(=O)N[C@@H](C)CNc1nccc(-c2cn(C(C)C)nc2-c2cc(Cl)cc(NS(C)(=O)=O)c2F)n1 [encorafenib] , report its inhibition at 1 µM.
RESULT: 5

(I) Cc1nc(NC(=O)N2CCC[C@H]2C(N)=O)sc1-c1ccnc(C(C)(C)C(F)(F)F)c1 [alpelisib]
(II) C[C@H](Nc1ncnc2nc[nH]c12)c1cc2cccc(Cl)c2c(=O)n1-c1ccccc1 [duvelisib]
(III) Cc1cc(Nc2ncnc3ccc(NC4=NC(C)(C)CO4)cc23)ccc1Oc1ccn2ncnc2c1 [tucatinib]
QUERY: Sequence the entries by inhibition at 1 µM, beginning with the highest number. Please respond with the labels ordered as the question requires.
RESULT: III, I, II

* * *

Biological target: panel of 255 wild-type kinases (Homo sapiens, UniProt Q14164)
Sequence (Q14164 1-716): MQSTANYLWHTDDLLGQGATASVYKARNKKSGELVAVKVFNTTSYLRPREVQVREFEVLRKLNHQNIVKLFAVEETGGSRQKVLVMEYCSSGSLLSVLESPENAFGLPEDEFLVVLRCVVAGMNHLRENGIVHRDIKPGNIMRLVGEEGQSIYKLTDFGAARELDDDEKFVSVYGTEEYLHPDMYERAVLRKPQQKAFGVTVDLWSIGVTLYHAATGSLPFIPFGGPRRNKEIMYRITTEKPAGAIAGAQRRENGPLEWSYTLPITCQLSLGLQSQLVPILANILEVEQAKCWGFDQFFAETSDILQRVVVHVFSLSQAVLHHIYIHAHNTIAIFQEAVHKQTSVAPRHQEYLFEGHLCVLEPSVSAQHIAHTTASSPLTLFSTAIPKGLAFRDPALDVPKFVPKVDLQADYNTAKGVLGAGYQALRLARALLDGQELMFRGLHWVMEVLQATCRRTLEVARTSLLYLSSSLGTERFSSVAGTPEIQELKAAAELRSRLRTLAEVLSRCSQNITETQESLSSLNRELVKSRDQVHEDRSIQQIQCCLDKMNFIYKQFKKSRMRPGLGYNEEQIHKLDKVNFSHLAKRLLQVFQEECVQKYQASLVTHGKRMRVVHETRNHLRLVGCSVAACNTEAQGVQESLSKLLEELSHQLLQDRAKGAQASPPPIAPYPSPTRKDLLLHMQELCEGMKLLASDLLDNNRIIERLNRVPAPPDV
Experiment: Kinase panel profiling at 1 µmol/L (MSA or IMAP), percentage inhibition
Type: biochemical
Conditions: kinase IKKε; 1 µmol/L single concentration; read-out: %-inhibition at 1 µmol/L, IKKε
assay_metric: inhibition at 1 µM (%)

Worked cases, answers included:
QUERY: Query: inhibition at 1 µM; subject: FC(F)(F)c1ccc(CNc2ccc(Cc3c[nH]c4ncc(Cl)cc34)cn2)cn1
RESULT: -1.81

QUERY: Which inhibition at 1 µM reading was recorded for the compound COc1ccc(CN2C3CC2CN(c2ccc(-c4cc(OCC(C)(C)O)cn5ncc(C#N)c45)cn2)C3)cn1 ?
RESULT: 20

QUERY: Requested field: inhibition at 1 µM. Item: CO[C@]1(C(=O)N[C@@H](C)c2ccc(-n3cc(F)cn3)nc2)CC[C@H](c2nc(C)cc(Nc3cc(C)[nH]n3)n2)CC1
RESULT: -5

QUERY: Dear colleague, I am looking for the recorded inhibition at 1 µM of the following compound: COc1cc2ncnc(Nc3ccc(F)c(Cl)c3)c2cc1NC(=O)/C=C/CN1CCCCC1
RESULT: -2.11

QUERY: What does the data say about its inhibition at 1 µM? Entry: COC(=O)N[C@@H](C)CNc1nccc(-c2cn(C(C)C)nc2-c2cc(Cl)cc(NS(C)(=O)=O)c2F)n1
RESULT: -3.36

(A) Cn1cnc2c(F)c(Nc3ccc(Br)cc3Cl)c(C(=O)NOCCO)cc21
(B) O=C(Nc1cnn2ccc(N3CCC[C@@H]3c3cc(F)ccc3F)nc12)N1CC[C@H](O)C1
(C) Cn1cnc2c(F)c(Nc3ccc(Br)cc3F)c(C(=O)NOCCO)cc21
QUERY: List the 3 entries from lowest inhibition at 1 µM to highest inhibition at 1 µM value. Would you mind listing the labels in the order asked for?
RESULT: A, C, B
(A: -5.67%, C: -3%, B: 7%)
